meta.source: patent US20240109974A1

- target desc: T1, human TNFR2 on the surface of CHO-TNFR2 cells (human, UniProt P20333 23-461)
- T1 construct: whole, on cells
- T1 sequence (looked up): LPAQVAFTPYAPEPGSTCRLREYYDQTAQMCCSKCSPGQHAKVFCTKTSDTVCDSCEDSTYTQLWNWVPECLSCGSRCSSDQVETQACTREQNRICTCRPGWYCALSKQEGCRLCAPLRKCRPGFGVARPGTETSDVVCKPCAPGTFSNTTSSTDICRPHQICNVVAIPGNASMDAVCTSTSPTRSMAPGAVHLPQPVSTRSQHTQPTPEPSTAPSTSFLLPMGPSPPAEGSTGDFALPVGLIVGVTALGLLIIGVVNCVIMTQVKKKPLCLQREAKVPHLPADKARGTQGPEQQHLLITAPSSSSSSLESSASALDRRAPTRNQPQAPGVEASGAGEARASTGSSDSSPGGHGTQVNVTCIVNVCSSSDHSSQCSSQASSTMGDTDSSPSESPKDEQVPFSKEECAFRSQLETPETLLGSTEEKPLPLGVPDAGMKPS
- experiment notes: flow cytometry on CHO-TNFR2 cells; AUC against 219-WT
Below is a list of entries, each paired with its recorded % Relative activity (Test antibody/WT antibody) value.
Answers without a unit are incomplete; give the number and then its unit.

Examples from the recorded data:
219-Hu5 (antibody, V domains shown, also called VH7 + VL5) VH: QVQLVQSGAEVKKPGSSVKVSCKASGYSFTNYWMNWVRQAPGQGLEWMGMIHPSDTETRLNQNFKDRVTITVDKSTSTAYMELSSLRSEDTAVYYCARGEGLGAARSVSMDYWGQGTLVTVSS VL: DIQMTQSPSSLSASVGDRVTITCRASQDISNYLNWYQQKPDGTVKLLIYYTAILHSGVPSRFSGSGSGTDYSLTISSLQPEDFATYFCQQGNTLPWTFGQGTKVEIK : 93.3%
219-Hu2 (antibody, V domains shown, also called VH4 + VL5) VH: QVQLVQSGAEVKKPGSSVKVSCKASGYSFTNYWMNWVRQAPGQGLEWMGMIHPSDTETRLNQNFKDKATITADKSTSTAYMELSSLRSEDTAVYYCARGEGLGAARSVSMDYWGQGTLVTVSS VL: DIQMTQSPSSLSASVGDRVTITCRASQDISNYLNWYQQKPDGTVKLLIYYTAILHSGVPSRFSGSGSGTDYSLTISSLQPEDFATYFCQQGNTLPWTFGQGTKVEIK : 103%
219-Hu4 (antibody, V domains shown, also called VH6 + VL5) VH: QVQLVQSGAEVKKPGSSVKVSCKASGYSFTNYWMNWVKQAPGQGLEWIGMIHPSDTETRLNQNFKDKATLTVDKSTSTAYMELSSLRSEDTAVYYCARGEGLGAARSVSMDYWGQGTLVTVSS VL: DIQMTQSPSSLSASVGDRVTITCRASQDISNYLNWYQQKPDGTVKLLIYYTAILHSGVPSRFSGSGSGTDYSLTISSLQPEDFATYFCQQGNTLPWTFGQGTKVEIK : 95.6%

Q. Requested read-out: % Relative activity (Test antibody/WT antibody). Entry: 219-Hu1 (antibody, V domains shown, also called VH3 + VL5) VH: QVQLVQSGAEVKKPGASVKVSCKASGYSFTNYWMNWVRQAPGQRLEWMGMIHPSDTETRLNQNFKDRVTITRDTSASTAYMELSSLRSEDTAVYYCARGEGLGAARSVSMDYWGQGTLVTVSS VL: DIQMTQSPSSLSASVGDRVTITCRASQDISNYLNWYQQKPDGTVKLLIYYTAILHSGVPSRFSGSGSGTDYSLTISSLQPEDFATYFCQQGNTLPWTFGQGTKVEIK
A. 110%
